Published Ki for Serine/threonine-protein kinase pim-1 (Homo sapiens), assembled from different documents, is shown next.
property-name: Ki (µM)

The cases that follow already have their Ki on record.
compound	system	observed-result
CCn1ncc(NC(=O)c2nc(-c3ccccc3F)sc2N)c1N1CCC(N)C(OC)CC1 (centres unmarked)	Serine/threonine-protein kinase pim-1 (Homo sapiens)	0.000668
c1cc(-c2n[nH]c3cnc(-c4cnn(CC5COC5)c4)cc23)nc(N2CCNCC2)c1	Serine/threonine-protein kinase pim-1 (Homo sapiens)	0.0113
c1ccc(-c2n[nH]c3cnc(-n4ccnc4)cc23)cc1	Serine/threonine-protein kinase pim-1 (Homo sapiens)	0.0267
Fc1ccccc1-c1n[nH]c2cnc(-c3cnc[nH]3)cc12	Serine/threonine-protein kinase pim-1 (Homo sapiens)	0.0309
FC(F)(F)c1cccc(-c2n[nH]c3cnc(-c4cccnc4)cc23)c1	Serine/threonine-protein kinase pim-1 (Homo sapiens)	0.0159

[P] CO[C@H]1[C@H](C)O[C@@H](c2c(NC(=O)c3csc(-c4c(F)cccc4F)n3)cnn2C)CC[C@@H]1N
[Q] CCn1ncc(NC(=O)c2nc(-c3ccccc3F)sc2N)c1N1CCC[C@@H](N)CC1
Compare P and Q by numeric Ki and name the larger one. Your answer should be the label attached to the chosen record. Q

###

Here's a roundup of Ki values tested on Serine/threonine-protein kinase pim-1 (Homo sapiens), taken from various published works.
property-name: Ki (nM)

Record excerpt, results attached:
molecule	system	observed-result
CCn1cc(-c2cc3c(-c4cccc(N5CC[C@H](F)[C@H](N)C5)n4)n[nH]c3cn2)cn1 (relative stereo)	Serine/threonine-protein kinase pim-1 (Homo sapiens)	0.063
C[C@@H](F)c1cc(F)c(-c2nc(C(=O)Nc3cnn(C)c3[C@@H]3CC[C@@H](N)[C@H](F)CO3)cs2)c(F)c1	Serine/threonine-protein kinase pim-1 (Homo sapiens)	0.015
Nc1sc(-c2ccncc2)nc1C(=O)Nc1cnccc1N1CCC[C@H](N)C1	Serine/threonine-protein kinase pim-1 (Homo sapiens)	0.6

[1] c1cc(-c2n[nH]c3cnc(-c4cnn(C5CCC5)c4)cc23)nc(N2CCNCC2)c1
[2] C=Cc1ccc(-c2n[nH]c3cnc(-c4cnn(CC)c4)cc23)nc1N1CCC[C@H](N)C1
Select one: 1 or 2 . Criterion: greater recorded Ki. Label of pick, please. 1
(1: 0.132 nM, 2: 0.023 nM)

[1] Fc1ccccc1-c1n[nH]c2cnc(-c3cnccc3OC[C@@H]3CCNC3)cc12
[2] N[C@@H]1CCC[C@@H](Nc2cccc(-c3n[nH]c4cnc(-c5cccnc5)cc34)n2)C1
Hi, I'm comparing 1 with 2 and wondering which one has the bigger number for Ki. Any idea? Give the label of your selection. 1
(1: 0.189 nM, 2: 0.025 nM)

###

Listed below are compounds with pKi for Serine/threonine-protein kinase pim-1 (Homo sapiens), each taken from published literature.
pKi: −log10 of the molar value.
property-name: pKi

The examples below pair each entry with its known result.
compound	pKi
Cn1ncc(NC(=O)c2nc(-c3ncccc3F)sc2N)c1N1CC[C@@H](F)[C@@H](N)CC1	9.34
N[C@H]1CCN(c2cccc(-c3n[nH]c4cnc(-c5cccnc5)cc34)n2)C1	10.57
c1cncc(-c2cc3c(CNC4CCNCC4)n[nH]c3cn2)c1	5.42
N[C@H]1CCCN(c2cccc(-c3n[nH]c4cnc(-c5cccnc5)cc34)n2)C1	10.39
CC(C)n1cc(-c2cc3c(-c4cccc(N5CCNCC5)n4)n[nH]c3cn2)cn1	9.67

[P] c1cncc(-c2cc3c(N4CCC(N5CCNCC5)C4)n[nH]c3cn2)c1 (stereo not shown)
[Q] CCn1cc(-c2cc3c(-c4cccc(N5CCNCC(CO)C5)n4)n[nH]c3cn2)cn1 (stereo not shown)
[R] COC1CCN(c2c(NC(=O)c3nc(-c4c(F)cccc4F)sc3N)cnn2C2CC2)CCC1N (single isomer, unassigned)
[S] NC1CCN(c2cncc(-c3cc4c(-c5ccccc5F)n[nH]c4cn3)n2)CC1
Exam item: list the entries in increasing order of pKi. Output spec: labels arranged per the requested ranking. P, S, R, Q
(P: 8.41, S: 9.92, R: 10.44, Q: 10.80)

[A] N[C@H]1CCCN(c2nc(-c3n[nH]c4cnc(-c5cccnc5)cc34)ccc2Br)C1
[B] N[C@@H]1CCC[C@H](Nc2cccc(-c3n[nH]c4cnc(-c5cccnc5)cc34)n2)C1
[C] c1cc(-c2n[nH]c3cnc(-n4ccnc4)cc23)nc(N2CCCCC2)c1
List these items ordered by pKi, big to small. Write out the labels following the order that was asked for. A, B, C
(A: 10.77, B: 10.11, C: 8.62)

[P] Cn1ncc(NC(=O)c2csc(-c3cc4[nH]ncc4cc3F)n2)c1[C@@H]1CC[C@@H](N)[C@H](F)CO1
[Q] CCc1ccnc(-c2n[nH]c3cnc(-c4cnn(CC)c4)cc23)c1
[R] Cc1nn(C)cc1-c1nc(C(=O)Nc2cnn(C)c2N2CC[C@@H](N)[C@H](F)CC2)c(N)s1
[S] Cc1cc(-c2nc(C(=O)Nc3cnn(C)c3N3CC[C@@H](N)[C@H](F)CC3)c(N)s2)ccn1
Ascending by pKi, please. Answer by listing the labels in the requested order. Q, S, R, P
